Record form. Attribute: MBC. Fill in for each entry.
Tested on: Staphylococcus aureus
Test: Bactericidal activity against vancomycin-resistant Staphylococcus aureus 10 incubated for 18 to 20 hrs followed by replating on tryptic soy agar plate and further incubated for 18 to 24 hrs by CLSI-based broth microdilution assay
Type: functional
Numbers only, in µg/mL.

[
  {
    "compound": "C/C(=N\\NC(=N)N)c1sc(-c2ccc(N3CCCC(C)C3)cc2)nc1C (centres undefined)",
    "assayed system": "Staphylococcus aureus",
    "observed measurement": 16
  }
]

q: Any idea what its MBC is? The compound is C/C(=N\NC(=N)N)c1sc(-c2ccc(N3CCCCC3)cc2)nc1C
a: 16

---

Test system: Staphylococcus aureus
Experiment: Bactericidal activity against Staphylococcus aureus ATCC BAA42 incubated for 18 to 20 hrs followed by replating on tryptic soy agar plate and further incubated for 18 to 24 hrs by CLSI-based broth microdilution assay
Format: functional
Can you tell me MBC for the items I'm about to list?
Numbers only, in µg/mL.

// solved cases for MBC follow
[
  {
    "compound": "C/C(=N\\NC(=N)N)c1sc(-c2ccc(N3CCCC(C)C3)cc2)nc1C (centres undefined)",
    "observed measurement": 16
  },
  {
    "compound": "CC(=O)NC[C@H]1CN(c2ccc(N3CCOCC3)c(F)c2)C(=O)O1",
    "observed measurement": 16
  }
]

In the following, a different compound is considered.
q: Suppose we examine the compound C/C(=N\NC(=N)N)c1sc(-c2ccc(N3CCCCC3)cc2)nc1C ; what MBC value has been reported?
a: 16

---

Experiment: Safety index, ratio of non-toxic concentration for human Caco2 cells to MIC for methicillin-resistant Staphylococcus aureus NRS384 USA300
Format: toxicity
Can you tell me selectivity ratio for the items I'm about to list?
One number for each entry.

[
  {
    "molecule": "C/C(=N\\NC(=N)N)c1sc(-c2ccc(N3CCCC(C)C3)cc2)nc1C (configuration not stated)",
    "observed measurement": 8
  }
]

q: Which selectivity ratio is listed for C/C(=N\NC(=N)N)c1sc(-c2ccc(N3CCCCC3)cc2)nc1C ?
a: 16

---

Test: Clearance in Sprague-Dawley rat at 50 mg/kg, po administered via gavage after 12 hrs by LC-MS/MS analysis
Format: ADME, organism-based
Conditions: in vivo
endpoint name: CL/F (mL/min)
Answers are plain numbers, in mL/min.

q: Using the record for C/C(=N\NC(=N)N)c1sc(-c2ccc(N3CCCCC3)cc2)nc1C , report its CL/F.
a: 12.7

---

Tested on: Staphylococcus aureus
Test: Bactericidal activity against methicilline-resistant Staphylococcus aureus NRS123 USA400 incubated for 18 to 20 hrs followed by replating on tryptic soy agar plate and further incubated for 18 to 24 hrs by CLSI-based broth microdilution assay
Format: functional
So I've got a bunch of compounds here, and I need their MBC values.
One number for each entry, in µg/mL.

These recorded examples may help you get a feel for the data.
[
  {
    "compound": "CC(=O)NC[C@H]1CN(c2ccc(N3CCOCC3)c(F)c2)C(=O)O1",
    "assayed system": "Staphylococcus aureus",
    "measurement unit": "µg/mL",
    "MBC": 64
  },
  {
    "compound": "C/C(=N\\NC(=N)N)c1sc(-c2ccc(N3CCCC(C)C3)cc2)nc1C (centres undefined)",
    "assayed system": "Staphylococcus aureus",
    "measurement unit": "µg/mL",
    "MBC": 16
  },
  {
    "compound": "C/C(=N\\NC(=N)N)c1sc(-c2ccc(N3CCCCC3)cc2)nc1C",
    "assayed system": "Staphylococcus aureus",
    "measurement unit": "µg/mL",
    "MBC": 16
  }
]

Then this compound:
q: Value wanted: MBC (Staphylococcus aureus) of entry CN[C@H](CC(C)C)C(=O)N[C@H]1C(=O)N[C@@H](CC(N)=O)C(=O)N[C@H]2C(=O)N[C@H]3C(=O)N[C@H](C(=O)N[C@H](C(=O)O)c4cc(O)cc(O)c4-c4cc3ccc4O)[C@H](O)c3ccc(c(Cl)c3)Oc3cc2cc(c3O[C@@H]2O[C@H](CO)[C@@H](O)[C@H](O)[C@H]2O[C@H]2C[C@](C)(N)[C@H](O)[C@H](C)O2)Oc2ccc(cc2Cl)[C@H]1O
a: 1
